assay_notes: chemical genetic growth profiling, strain panel (AID 1159580);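 further: tested at 20 µM; growth read once vehicle control cultures reached saturation at 30 °C; 1 = growth at the plate median or of vehicle wells; lower values mean less growth of the strain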
assay_conditions: S. cerevisiae deletion strains, growth OD, locus YLL041C, strain sdh2
The whole screen tested about 5,500 compounds, of which about 2,000 (36%) were called active. Roughly 18% stayed inconclusive and do not appear here. No stated cut-off is given here; in the data, active means normalized growth mostly below about 0.91 (no sharp cut-off); inconclusive means no clear call, values can overlap the other calls; inactive means mostly above about 0.92. The list shows a part of the results.
Outcome codes: active, inactive

compound: O=C(CCBr)N1CCN(C(=O)CCBr)CC1
discrete_label: inactive
//
compound: O=c1c(O)c(-c2ccc(O)c(O)c2)oc2cc(O)ccc12
discrete_label: inactive
//
compound: COc1ccc2c(=O)ccoc2c1
discrete_label: inactive
//
compound: CCC1(CC)C(=O)C=CNC1=O
discrete_label: inactive
//
compound: COc1cc2cc3c4cc(OC)c(OC)cc4cc[n+]3c(C)c2cc1OC
discrete_label: inactive
//
compound: OC(c1cc(C(F)(F)F)nc2c(C(F)(F)F)cccc12)C1CCCCN1 (stereo not drawn)
discrete_label: inactive
//
compound: CCOC([O-])=Nc1c[n+](N2CCOCC2)no1
discrete_label: inactive
//
compound: CC(=O)N[C@@H](Cc1c[nH]c2ccccc12)C(=O)O
discrete_label: inactive
//
compound: C1CCC(C(CC2CCCCN2)C2CCCCC2)CC1 (stereo not drawn)
discrete_label: inactive
//
compound: COc1cc(-c2oc3cc(O)ccc3c(=O)c2O)ccc1O
discrete_label: inactive
//
compound: COc1cnc(NS(=O)(=O)c2ccc(N)cc2)nc1
discrete_label: inactive
//
compound: CCN(CC)CCNC(=O)c1cc(Cl)c(N)cc1OC
discrete_label: inactive
//
compound: NCCc1c[nH]c2ccccc12
discrete_label: inactive
//
compound: COc1ccc2c(c1)[C@]13CCCC[C@H]1[C@H](C2)N(C)CC3
discrete_label: inactive
//
compound: O=C(NC1CCCCC1)NC1CCCCC1
discrete_label: inactive
//
compound: CCc1cccc2c3c([nH]c12)C(CC)(CC(=O)O)OCC3 (stereo not drawn)
discrete_label: inactive
//
compound: COc1ccc(-c2oc3ccccc3c(=O)c2O)cc1OC
discrete_label: active
//
compound: Cc1cc(=O)n(-c2ccccc2)n1C
discrete_label: inactive

###

assay_notes: chemical genetic growth profiling, strain panel (AID 1159580);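 further: tested at 20 µM; growth read once vehicle control cultures reached saturation at 30 °C; 1 = growth at the plate median or of vehicle wells; lower values mean less growth of the strain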
assay_conditions: S. cerevisiae deletion strains, growth OD, locus YCL011C, strain gbp2
The campaign covered roughly 5,500 compounds. About 2,000 (36%) were called active. Another 18% or so got no clear call; they are omitted. No stated cut-off is given here; in the data, active means normalized growth mostly below about 0.91 (no sharp cut-off); inconclusive means no clear call, values can overlap the other calls; inactive means mostly above about 0.92. The list shows a part of the results.
Classes used: class 1 = active, class 0 = inactive

structure_string: CO[C@@]1(NC(=O)Cc2cccs2)C(=O)N2C(C(=O)O)=C(COC(N)=O)CS[C@@H]21
discrete_label: class 0

structure_string: COc1ccc(-c2oc3ccccc3c(=O)c2O)cc1OC
discrete_label: class 1

structure_string: O=c1c(O)c(-c2ccc(O)c(O)c2)oc2cc(O)ccc12
discrete_label: class 0

structure_string: Cc1c(NC(=O)c2cccnc2)c(=O)n(-c2ccccc2)n1C
discrete_label: class 0

structure_string: CC1=NN(c2ccccc2)C(=O)C1
discrete_label: class 0

structure_string: COc1cc(-c2oc3cc(O)ccc3c(=O)c2O)ccc1O
discrete_label: class 0

structure_string: CCOc1cccc(C(=O)c2ccc(O)c(O)c2O)c1
discrete_label: class 0

structure_string: CCOC([O-])=Nc1c[n+](N2CCOCC2)no1
discrete_label: class 0

structure_string: O=C(NC1CCCCC1)NC1CCCCC1
discrete_label: class 0

structure_string: COc1cc(-c2coc3cc(O[C@@H]4O[C@H](CO)[C@@H](O)[C@H](O)[C@H]4O)c(OC)c(O)c3c2=O)cc(O)c1OC
discrete_label: class 0
